- Test system: NCI-H460 cells
- test_description: MTT cytotoxicity in NCI-H460 cells
- condition_notes: read-out: Cytotoxicity IC50; NCI-H460 cells, 48 h (Table 2)
recorded_endpoint: IC50

Lab note: CC(=O)OCC1OC(OC(C)(CCC=C(C)C)C2CCC3(C)C2C(OC(C)=O)CC2C4(C)CCC(OC(C)=O)C(C)(C)C4CCC23C)C(OC(C)=O)C(OC(C)=O)C1OC(C)=O (stereo not shown) gave IC50 of > 100 µM

* * *

- System: SW480 cells
- test_description: MTT cytotoxicity in SW480 cells
- Type: cell-based
- condition_notes: Homo sapiens; SW480 colon cancer, 72 hours
recorded_endpoint: pIC50
// returns pIC50 (minus log10 of molar concentration), number only

// returns pIC50 for CC(C)=CCC[C@](C)(OC1O[C@H](CO)[C@@H](O)[C@H](O)[C@H]1O)C1CC[C@]2(C)C1[C@H](O)CC1[C@@]3(C)CC[C@H](O)C(C)(C)C3CC[C@]12C (stereo partly shown) [CK, reference compound] with SW480 cells; value = 4.34

* * *

Record set of pKd for target or system PRELID3b-TRIAP1-MBP (Homo sapiens).
// returns pKd (minus log10 of molar concentration), number only

compound	test_result
COc1ccc(C2OCC3OC(OC(C)(CCC=C(C)C)C4CCC5(C)C4C(O)CC4C6(C)CCC(O)C(C)(C)C6CCC45C)C(O)C(O)C3O2)cc1 (centres unmarked)	5.28

Please turn your attention to the following entry.
// returns pKd for CC(C)=CCC[C@](C)(OC1O[C@H](CO)[C@@H](O)[C@H](O)[C@H]1O)C1CC[C@]2(C)C1[C@H](O)CC1[C@@]3(C)CC[C@H](O)C(C)(C)C3CC[C@]12C (some centres unmarked) [CK, reference compound] with PRELID3b-TRIAP1-MBP (Homo sapiens); value = 4.25

* * *

Measured IC50 of individual entries
- Tested on: NCI-H1650 cells
- test_description: Cytotoxicity in NCI-H1650 cells
- Type: cell-based
- condition_notes: Homo sapiens, NCI-H1650, 48 h; read-out: IC50 48 h

compound	target_desc	test_result
CC(C)=CCC[C@](C)(OC1O[C@H](CO)[C@@H](O)[C@H](O)[C@H]1O)C1CC[C@]2(C)C1[C@H](O)CC1[C@@]3(C)CC[C@H](O)C(C)(C)C3CC[C@]12C (some centres unmarked) [CK, reference compound]	NCI-H1650 cells	71.3 µM

Please turn your attention to the following entry.
Lab note: COc1ccc(C2OCC3OC(OC(C)(CCC=C(C)C)C4CCC5(C)C4C(O)CC4C6(C)CCC(O)C(C)(C)C6CCC45C)C(O)C(O)C3O2)cc1 (centres unmarked) gave IC50 of 25.1 µM

* * *

- Tested on: NCI-H460 cells
- test_description: MTT cytotoxicity in NCI-H460 cells
- condition_notes: Homo sapiens, NCI-H460, 24 h, read-out: IC50 24 h
recorded_endpoint: IC50 (µM)
Your answer should be a plain number; it is taken to be in µM.

molecule	target_desc	reading_unit	test_result
CC(C)=CCC[C@](C)(OC1O[C@H](CO)[C@@H](O)[C@H](O)[C@H]1O)C1CC[C@]2(C)C1[C@H](O)CC1[C@@]3(C)CC[C@H](O)C(C)(C)C3CC[C@]12C (some centres unmarked) [CK, reference compound]	NCI-H460 cells	µM	64.7

Lab note: COc1ccc(C2OCC3OC(OC(C)(CCC=C(C)C)C4CCC5(C)C4C(O)CC4C6(C)CCC(O)C(C)(C)C6CCC45C)C(O)C(O)C3O2)cc1 (centres unmarked) [CKD-4] gave IC50 of 23.3

* * *

- System: NCI-H460 cells
- test_description: MTT cytotoxicity in NCI-H460 cells
- condition_notes: Homo sapiens, NCI-H460, 48 h, read-out: Cytotoxicity IC50
Measured IC50 of individual entries
Your answer should be a plain number; it is taken to be in µM.

compound	test_result
CC(C)=CCC[C@](C)(OC1O[C@H](CO)[C@@H](O)[C@H](O)[C@H]1O)C1CC[C@]2(C)C1[C@H](O)CC1[C@@]3(C)CC[C@H](O)C(C)(C)C3CC[C@]12C (some centres unmarked) [CK, reference compound]	53.4

Please turn your attention to the following entry.
Lab note: COc1ccc(C2OCC3OC(OC(C)(CCC=C(C)C)C4CCC5(C)C4C(O)CC4C6(C)CCC(O)C(C)(C)C6CCC45C)C(O)C(O)C3O2)cc1 (centres unmarked) [CKD-4] gave IC50 of 16.5

FYI, the data here is from patent US20230381213A1.
